Test: Heat of CO2 absorption calculated from the VLE model
Type: physicochemical
Conditions: Conc. (m): MDEA/PZ 7/2, PZ 8, MEA 7, HEP 7.7, AEP 6, 2-PE 8, AMP 4.8, EDA 12, DGA 10, PZ-MPZ 4/4, MPZ 8
endpoint: ΔHabs@PCO2 = 1.5 kPa (kcal/mol)

INSERT INTO assay_data (molecule, endpoint, numeric_value) VALUES
  ('OCCC1CCCCN1 (centres unmarked)', 'ΔHabs@PCO2 = 1.5 kPa', 17.4),
  ('NCCO', 'ΔHabs@PCO2 = 1.5 kPa', 19.6),
  ('NCCOCCO', 'ΔHabs@PCO2 = 1.5 kPa', 19.4),
  ('NCCN1CCNCC1', 'ΔHabs@PCO2 = 1.5 kPa', 17.2),
  ('OCCN1CCNCC1', 'ΔHabs@PCO2 = 1.5 kPa', 16.5),
  ('CC1CNCCN1 (racemic)', 'ΔHabs@PCO2 = 1.5 kPa', 17.2),
  ('CC(C)(N)CO', 'ΔHabs@PCO2 = 1.5 kPa', 17.4),
  ('C1CNCCN1', 'ΔHabs@PCO2 = 1.5 kPa', 16.7);

---

Assay: Cyclic CO2 capacity calculated from the regressed VLE model
Format: physicochemical
Details: Conc. (m): MDEA/PZ 7/2, PZ 8, MEA 7, HEP 7.7, AEP 6, 2-PE 8, AMP 4.8, EDA 12, DGA 10, PZ-MPZ 4/4, MPZ 8
endpoint: CO2 Capacity

# annotated cases, reported CO2 Capacity shown
INSERT INTO results (compound, endpoint, result) VALUES
  ('NCCOCCO [DGA ®]', 'CO2 Capacity', '0.38 mol/kg (water + amine)'),
  ('OCCC1CCCCN1 (centres unmarked) [2-PE]', 'CO2 Capacity', '1.23 mol/kg (water + amine)'),
  ('OCCN1CCNCC1 [HEP]', 'CO2 Capacity', '0.68 mol/kg (water + amine)'),
  ('CC1CNCCN1 (racemic) [2MPZ, 2-methyl piperazine]', 'CO2 Capacity', '0.93 mol/kg (water + amine)'),
  ('NCCO [MEA, monoethanolamine]', 'CO2 Capacity', '0.47 mol/kg (water + amine)');

Indicate its recorded CO2 Capacity; the compound in question is CC(C)(N)CO [AMP]
0.96 mol/kg (water + amine)

Report CO2 Capacity, nothing else, for this compound: NCCN1CCNCC1 [AEP]
0.66 mol/kg (water + amine)

Specify measured CO2 Capacity for C1CNCCN1 [PZ, piperazine] .
0.79 mol/kg (water + amine)
